Documented Kd across a set of compounds
target: BCL6 BTB domain (Homo sapiens (Human))
Dear colleague, please return just the value in nM, with no unit written.

COC[C@H]1COCCN1c1cc(NC(=O)Cn2cc(-c3cc(Cl)c(O)c(C(N)=O)c3)c3c(=O)n(C)cnc32)c(Cl)cn1 [Compound I-151] ... 10.6

Need Kd of C[C@H]1CCCN1c1cc(NC(=O)Cn2cc(-c3cc(Cl)c(O)c(C(N)=O)c3)c3c(=O)n(C)cnc32)c(Cl)cn1 [Compound I-136] , thanks. 55

Input COc1cc(-c2cn(CC(=O)Nc3cc(N4CCOCC4)ncc3Cl)c3nc(C)n(C)c(=O)c23)cc(C(N)=O)c1O [Compound I-123] 7

Input Cn1cnc2c(c(-c3cc(C(N)=O)c(O)c(F)c3F)cn2CC(=O)Nc2cc(N3CCOCC3)nc(F)c2Cl)c1=O [Compound I-318] 51.8

Input Cn1cnc2c(c(-c3cc(F)c(O)c(C(N)=O)c3)cn2CC(=O)Nc2cc(N3CCOCC3)c(F)cc2Cl)c1=O [Compound I-219] 70.9

Input C[C@H]1CN(CC2CC2)CCN1c1cc(NC(=O)Cn2cc(-c3cc(Cl)c(O)c(C(N)=O)c3)c3c(=O)n(C)cnc32)c(Cl)cn1 [Compound I-301] 19.6

Input Cn1cnc2c(c(-c3cc(C(N)=O)c(O)cn3)cn2CC(=O)Nc2cc(N3CCOCC3)ncc2Cl)c1=O [Compound I-131] 8000

Input Cc1nc2c(c(-c3cc(C(N)=O)c(O)c(F)c3F)cn2CC(=O)Nc2cc(N3CCN(C4CC4)C[C@@H]3C)ncc2Cl)c(=O)n1C [Compound I-379] 68.6

Input C[C@@H]1CN(c2cc(NC(=O)Cn3cc(-c4cc(C(N)=O)c(O)c(Cl)c4F)c4c(=O)n(C)cnc43)c(Cl)cn2)C[C@H](C)O1 [Compound I-192] 757

Input C[C@H](C1CC1)N1CCN(c2cc(NC(=O)Cn3cc(-c4cc(C(N)=O)c(O)c(F)c4F)c4c(=O)n(C)cnc43)c(Cl)cn2)[C@@H](C)C1 [Compound I-425] 44.7

Input CN1CC2CC1CN2c1cc(NC(=O)Cn2cc(-c3cc(Cl)c(O)c(C(N)=O)c3)c3c(=O)n(C)cnc32)c(Cl)cn1 (stereo not drawn) [Compound I-367] 41.9

###

BCL6 BTB domain (Homo sapiens (Human), UniProt P41182) data, read-out pKd
// pKd here means minus log10 of the molar concentration (mol/L)

C[C@H]1COCCN1c1cc(NC(=O)Cn2cc(-c3cc(C(N)=O)c(O)c(F)c3F)c3c(=O)n(C)cnc32)c(Cl)cn1 [Compound I-180] ... 7.34
Cc1nc2c(c(-c3cc(Cl)c(O)c(C(N)=O)c3)cn2CC(=O)Nc2cc(N3CCN(C)C[C@@H]3C)ncc2Cl)c(=O)n1C [Compound I-206] ... 8.03
C[C@H]1CN(C)CCN1c1cc(NC(=O)Cn2cc(-c3cc(F)c(O)c(C(N)=O)c3)c3c(=O)n(C)c(C(F)(F)F)nc32)c(Cl)cn1 [Compound I-233] ... 7.63
Cn1cnc2c(c(-c3cc(Cl)c(O)c(C(N)=O)c3)cn2CC(=O)Nc2cc(N3CCOC(C(F)(F)F)C3)ncc2Cl)c1=O (stereo not drawn) [Compound I-258] ... 7.00
C[C@H]1COCCN1c1cc(NC(=O)Cn2cc(-c3cc(C(N)=O)c(O)c4c3OCO4)c3c(=O)n(C)cnc32)c(Cl)cn1 [Compound I-302] ... 8.30

With those in mind, consider the next molecule.
Need pKd of Cn1cnc2c(c(-c3cc(Cl)c(O)c(C(N)=O)c3)cn2CC(=O)NC2CCCCC2)c1=O [Compound I-211] , thanks. 5.92

###

biological target: BCL6 BTB domain (Homo sapiens (Human), UniProt P41182)
endpoint-name: pKd
// pKd here means minus log10 of the molar concentration (mol/L)

Example entries and their recorded answers appear below.
CN(C)C1CN(c2cc(NC(=O)Cn3cc(-c4cc(F)c(O)c(C(N)=O)c4)c4c(=O)n(C)cnc43)c(Cl)cn2)C1 ... 8.07
Cn1cnc2c(c(-c3cc(Cl)c(O)c(C(N)=O)c3)cn2CC(=O)Nc2cc(N3CCn4cc(C(F)(F)F)nc4C3)ncc2Cl)c1=O ... 7.83
Cn1cnc2c(c(-c3cc(Cl)c(O)c(C(N)=O)c3)cn2CC(=O)Nc2cc(N3CCOC4CC43)ncc2Cl)c1=O (stereo not shown) ... 8.07

Need pKd of Cn1cnc2c(c(-c3cc(C(N)=O)c(O)cn3)cn2CC(=O)Nc2cc(N3CCOCC3)ncc2Cl)c1=O [Compound I-143] , thanks. 6.60

Input `Cc1cc(-c2cn(CC(=O)Nc3cc(N4CCOC[C@@H]4C)ncc3Cl)c3ccn(C)c(=O)c23)cc(C(N)=O)c1O` 5.49

Input `CO[C@@H]1CN(c2cc(NC(=O)Cn3cc(-c4cc(Cl)c(O)c(C(N)=O)c4)c4c(=O)n(C)c(C)nc43)c(Cl)cn2)C[C@@H]1F` 7.55

Input `CN1CCC2(C1)CN(c1cc(NC(=O)Cn3cc(-c4cc(C(N)=O)c(O)c(F)c4F)c4c(=O)n(C)cnc43)c(Cl)cn1)C2` 6.09

Input `C[C@H]1CN(C2CCC2)CCN1c1cc(NC(=O)Cn2cc(-c3cc(C(N)=O)c(O)c(F)c3F)c3c(=O)n(C)cnc32)c(Cl)cn1` 7.37

Input `C[C@H]1CN(C)CCN1c1cc(NC(=O)Cn2cc(-c3cc(F)c(O)c(C(N)=O)c3)c3c(=O)n(CC#Cc4cnn(C)c4)cnc32)c(Cl)c(F)n1` 8.62

Input `C[C@@H]1CN(CCN(C)c2cc(NC(=O)Cn3cc(-c4cc(Cl)c(O)c(C(N)=O)c4)c4c(=O)n(C)cnc43)c(Cl)cn2)C[C@H](C)O1` 7.72

###

BCL6 BTB domain (Homo sapiens (Human)) data, read-out pKd
// pKd here means minus log10 of the molar concentration (mol/L)

C[C@H]1CN(CC2CCC2)CCN1c1cc(NC(=O)Cn2cc(-c3cc(C(N)=O)c(O)c(F)c3F)c3c(=O)n(C)cnc32)c(Cl)cn1 ... 7.42
Cc1nc2c(c(-c3cc(C(N)=O)c(O)c(F)c3F)cn2CC(=O)Nc2cc(N3CCN(C)CC3)ncc2Cl)c(=O)n1C ... 7.15
Cn1cnc2c(c(-c3cc(Cl)c(O)c(C(N)=O)c3)cn2CC(=O)Nc2cc(N3CC4CC3CO4)ncc2Cl)c1=O (stereo not drawn) ... 7.47
CN(C)c1cc(NC(=O)Cn2cc(-c3cc(Cl)c(O)c(C(N)=O)c3)c3c(=O)n(C)c(NCc4ccc(F)cc4)nc32)c(Cl)cn1 ... 7.36

Need pKd of `Cc1nc2c(c(-c3cc(Cl)c(O)c(C(N)=O)c3)cn2CC(=O)Nc2cc(N3CCN(C)C[C@@H]3C)nc(F)c2Cl)c(=O)n1C` , thanks. 8.22

###

Documented pKd across a set of compounds
biological target: BCL6 BTB domain (Homo sapiens (Human), UniProt P41182)
// pKd here means minus log10 of the molar concentration (mol/L)

Example entries and their recorded answers appear below.
Cn1cnc2c(c(-c3cc(C(N)=O)c(O)c(F)c3F)cn2CC(=O)Nc2cc(N3CC4COCC4C3)ncc2Cl)c1=O (stereo not drawn) ... 7.50
Cn1cnc2c(c(-c3cc(Cl)c(O)c(C(N)=O)c3)cn2CC(=O)NC2CCCc3ccncc32)c1=O (stereo not drawn) ... 5.21

With those in mind, consider the next compound.
Need pKd of `Cc1c(N2CCOCC2)ncc(F)c1NC(=O)Cn1cc(-c2cc(Cl)c(O)c(C(N)=O)c2)c2c(=O)n(C)cnc21` , thanks. 6.92

###

Documented Kd across a set of compounds
target: BCL6 BTB domain (Homo sapiens (Human), UniProt P41182)

Example entries and their recorded answers appear below.
CC1CN(C)CC(C)N1c1cc(NC(=O)Cn2cc(-c3cc(Cl)c(O)c(C(N)=O)c3)c3c(=O)n(C)cnc32)c(Cl)cn1 (centres unmarked) [Compound I-340] ... 11.6 nM
CN1CCc2cc(NC(=O)Cn3cc(-c4cc(Cl)c(O)c(C(N)=O)c4)c4c(=O)n(C)cnc43)c(Cl)cc21 [Compound I-183] ... 221 nM

Need Kd of C[C@H]1CN(C2CC2)CCN1c1cc(NC(=O)Cn2cc(-c3cc(Cl)c(O)c(C(N)=O)c3)c3c(=O)n(C)cnc32)c(Cl)cn1 [Compound I-296] , thanks. 33.4 nM

Input C[C@H]1CN(CC2(C(F)(F)F)CC2)CCN1c1cc(NC(=O)Cn2cc(-c3cc(C(N)=O)c(O)c(F)c3F)c3c(=O)n(C)cnc32)c(Cl)cn1 [Compound I-377] 208 nM

Input Cn1cnc2c(c(-c3cc(C(N)=O)c(O)c(F)c3F)cn2CC(=O)Nc2cc(N3Cc4ccncc4C3)ncc2Cl)c1=O [Compound I-468] 23.5 nM

Input CN(C)c1cc(NC(=O)Cn2cc(-c3cc(Cl)c(O)c(C(N)=O)c3)c3c(=O)[nH]c(Cl)nc32)c(Cl)cn1 [Compound I-293] 18.3 nM

Input COc1ncc(Cl)c(NC(=O)Cn2cc(-c3cc(Cl)c(O)c(C(N)=O)c3)c3c(=O)n(C)c(C)nc32)c1F [Compound I-382] 342 nM

Input C[C@@H]1CN(c2cc(NC(=O)Cn3cc(-c4cc(C(N)=O)c(O)c(F)c4F)c4c(=O)n(C)cnc43)c(Cl)cn2)C[C@H](C)N1C [Compound I-353] 75 nM

Input C[C@H]1CNCCN1c1cc(NC(=O)Cn2cc(-c3cc(Cl)c(O)c(C(N)=O)c3)c3c(=O)n(C)cnc32)c(Cl)cn1 [Compound I-342] 11.3 nM

Input CCN1CCN(c2cc(NC(=O)Cn3cc(-c4cc(Cl)c(O)c(C(N)=O)c4)c4c(=O)n(C)cnc43)c(Cl)c(F)n2)[C@@H](C)C1 [Compound I-427] 13.8 nM

Input COCn1c(Cl)nc2c(c(-c3cc(Cl)c(O)c(C(N)=O)c3)cn2CC(=O)Nc2cc(N3CCN(C)C[C@@H]3C)ncc2Cl)c1=O [Compound I-323] 100 nM

Input CN1CC2(CCN(c3cc(NC(=O)Cn4cc(-c5cc(Cl)c(O)c(C(N)=O)c5)c5c(=O)n(C)cnc54)c(Cl)cn3)C2)C1 [Compound I-482] 34.3 nM
